Entry source: patent US20100144755A1

measure: melting point

molecule	melting point
CCCNC(=O)c1ccc(C)c(-c2nc(NCCN(C)C(=O)OC(C)(C)C)nc3c2ccc(=O)n3-c2c(F)cccc2F)c1 [Example 106]	115 to 118 °C
Cc1ccc(C(=O)NC2CC2)cc1-c1nc(NCCN(C)C)nc2c1ccc(=O)n2-c1c(F)cccc1F [Example 25]	214.7 to 217.5 °C
CCCNC(=O)c1ccc(C)c(-c2nc(NCCN(C)C)nc3c2ccc(=O)n3-c2c(F)cccc2F)c1 [Example 105]	139 to 142 °C

Retrieve melting point measured for Cc1ccc(C(=O)NCc2ccccc2)cc1-c1nc(NCc2ncc[nH]2)nc2c1ccc(=O)n2-c1c(F)cccc1F [116(c)] and print it.
185 to 190 °C (dec.)
